assay: chemical genetic growth profiling, strain panel (AID 1159580);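 note: tested at 20 µM; growth read once vehicle control cultures reached saturation at 30 °C; 1 = growth at the plate median or of vehicle wells; lower values mean less growth of the strain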; details: S. cerevisiae deletion strains, growth OD, locus YOR184W, strain ser1, stronger effect = lower value
Screen size: about 5,500 compounds; about 2,000 (36%) were called active. Another 18% or so got no clear call; they are omitted. Some of the results follow.
Hi there, I'd appreciate the recorded normalized growth for every entry that follows.
# respond with the number and nothing more

For this molecule ( CCC1(c2ccc(N)cc2)CCC(=O)NC1=O (stereo unspecified) ), measured normalized growth is 1.02

Sample COC(=O)c1c(Cl)c(Cl)c(C(=O)OC)c(Cl)c1Cl ; normalized growth observed: 0.989

Notebook: N=c1nc(N2CCCCC2)cc(N)n1O , normalized growth read as 1

// sample O=C(O)C1C(O)CCC2CN3CCc4c([nH]c5ccccc45)C3CC21 (stereo unspecified) , its normalized growth was 1.03

Summary for this molecule, COc1ccc(C(=O)c2ccccc2)c(O)c1 : normalized growth is 0.476

normalized growth for CN1Cc2c(ccc3c2OCO3)C2C(O)Cc3cc4c(cc3C21)OCO4 (stereo unspecified) is 0.984

Lab note: measured normalized growth of CNc1ccccc1C(=O)N1CCc2c([nH]c3ccccc23)C1=O was 0.979

Item: CN1CCc2cc3c(cc2C1O)OCO3 (stereo unspecified) | normalized growth: 0.959

Kindly note the recorded normalized growth for O=C(O)C1CC([C@@H]2CCCCN2)CN2CCCCC12 (stereo partly specified) , which is 1.01

normalized growth measured on CCC1(C)CC(=O)NC1=O (stereo unspecified) = 1.01

Kindly note the recorded normalized growth for CCc1cccc(C)c1N(C(=O)CCl)C(C)COC (stereo unspecified) , which is 1.03

Sure, the documented normalized growth for COC(=O)C1[C@H]2C[C@H]3c4[nH]c5ccccc5c4CCN3C[C@@H]2CC[C@@H]1O (stereo partly specified) is 1.01

Entry COc1cc(O)c(C(=O)c2ccccc2)cc1O , normalized growth reported as 1.07

Notebook: CC(=O)OCC(CCn1cnc2cnc(N)nc21)COC(C)=O , normalized growth read as 0.966

Form field normalized growth, entry COC(=O)[C@H]1[C@H]2C[C@H]3c4[nH]c5ccccc5c4CCN3C[C@H]2CC[C@@H]1O : 1.01

For record OCCN(CCO)c1nc(N2CCCCC2)c2nc(N(CCO)CCO)nc(N3CCCCC3)c2n1 the listed normalized growth is 0.997
